target: endogenous human tissue factor on MDA-MB-231 breast cancer cells (human, UniProt P13726 33-295); assay: cell-based or functional assay; further: test concentration or dose not given here
EXPERIMENTAL ENDPOINT: IL-8 Induction, Ave % inhibition (%)
# value in %; strip the unit string

// IL-8 Induction, Ave % inhibition lookup, binder = M11 (antibody, V domains shown, complete MAb; FR4 is its own entry; also called H15/L4) VH: EVQLVQSGAEVKKPGESLRISCKGSGYTFITYWIEWVRQMPGKGLEWMGDILPGSGSTNYNENFKGHVTISADKSISTAYLQWSSLKASDTAMYYCARSGYYGNSGFAYWGQGTLVTVSS VL: DIVMTQSPLSLPVTPGEPASISCKSSQSLLSSGNQKNYLTWYLQKPGQSPQLLIYWASTRESGVPDRFSGSGSGTDFTLKISRVEAEDVGVYYCQNDYTYPLTFGQGTKLEIK , result: 93

// IL-8 Induction, Ave % inhibition lookup, binder = M12 (antibody, V domains shown, complete MAb; FR4 is its own entry; also called H15/L5) VH: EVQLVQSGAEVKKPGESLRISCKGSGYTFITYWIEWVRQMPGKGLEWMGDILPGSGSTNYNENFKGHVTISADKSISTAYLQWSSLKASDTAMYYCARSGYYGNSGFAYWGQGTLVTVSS VL: DIVMTQTPLSLSVTPGQPASISCKSSQSLLSSGNQKNYLTWYLQKPGQPPQLLIYWASTRESGVPDRFSGSGSGTDFTLKISRVEAEDVGVYYCQNDYTYPLTFGQGTKLEIK , result: 102

// IL-8 Induction, Ave % inhibition lookup, binder = M58 (antibody, V domains shown, complete MAb; FR4 is its own entry; also called H22/L2) VH: EVQLVQSGAEVKKPGESLRISCKGSGYTFITYWIEWVRQMPGKGLEWMGDILPGSGSTNYSPSFQGHVTISADKSISTAYLQWSSLKASDTAMYYCARSGYYGNSGFAYWGQGTLVTVSS VL: DIVMTQSPDSLAVSLGERATINCKSSQSLLSSGNQKNYLTWYQQKPGQPPKLLIYWASTRESGVPDRFSGSGSGTDFTLTISSLQAEDVAVYYCQNDYTYPLTFGQGTKLEIK , result: 106

// IL-8 Induction, Ave % inhibition lookup, binder = M61 (antibody, V domains shown, complete MAb; FR4 is its own entry; also called H22/L5) VH: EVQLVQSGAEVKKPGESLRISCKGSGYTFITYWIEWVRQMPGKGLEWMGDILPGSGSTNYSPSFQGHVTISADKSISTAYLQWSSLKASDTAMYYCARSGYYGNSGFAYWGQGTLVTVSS VL: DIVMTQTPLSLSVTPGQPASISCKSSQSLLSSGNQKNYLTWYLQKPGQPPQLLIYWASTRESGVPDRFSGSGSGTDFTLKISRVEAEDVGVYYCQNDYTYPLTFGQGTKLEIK , result: 112

// IL-8 Induction, Ave % inhibition lookup, binder = M60 (antibody, V domains shown, complete MAb; FR4 is its own entry; also called H22/L4) VH: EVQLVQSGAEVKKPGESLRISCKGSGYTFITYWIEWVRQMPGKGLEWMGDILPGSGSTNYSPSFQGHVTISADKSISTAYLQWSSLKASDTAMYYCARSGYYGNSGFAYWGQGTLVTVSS VL: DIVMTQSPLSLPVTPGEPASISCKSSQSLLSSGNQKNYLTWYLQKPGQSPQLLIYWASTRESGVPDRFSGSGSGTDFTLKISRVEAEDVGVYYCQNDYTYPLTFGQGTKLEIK , result: 106

Others:
// IL-8 Induction, Ave % inhibition lookup, binder = M16 (antibody, V domains shown, complete MAb; FR4 is its own entry; also called H16/L2) VH: QVQLVQSGAEVKKPGASVKVSCKASGYTFITYWIEWVRQAPGQGLEWMGDILPGSGSTNYNENFKGRVTMTRDTSTSTVYMELSSLRSEDTAVYYCARSGYYGNSGFAYWGQGTLVTVSS VL: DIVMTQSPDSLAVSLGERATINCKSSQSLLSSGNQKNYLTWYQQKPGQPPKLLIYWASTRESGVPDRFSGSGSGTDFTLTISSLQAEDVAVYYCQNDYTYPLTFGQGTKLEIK , result: 109

// IL-8 Induction, Ave % inhibition lookup, binder = M19 (antibody, V domains shown, complete MAb; FR4 is its own entry; also called H16/L5) VH: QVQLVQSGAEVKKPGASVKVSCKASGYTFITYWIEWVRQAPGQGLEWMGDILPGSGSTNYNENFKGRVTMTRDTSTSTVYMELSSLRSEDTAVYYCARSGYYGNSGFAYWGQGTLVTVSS VL: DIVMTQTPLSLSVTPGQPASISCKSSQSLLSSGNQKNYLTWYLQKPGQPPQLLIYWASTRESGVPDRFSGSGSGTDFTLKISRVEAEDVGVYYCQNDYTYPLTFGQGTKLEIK , result: 106

// IL-8 Induction, Ave % inhibition lookup, binder = M1, 10H10 mouse-human chimera (antibody, V domains shown, also called H13/L1; parent chimeric antibody) VH: QVHLQQSGAELMKPGASVKISCKASGYTFITYWIEWVKQRPGHGLEWIGDILPGSGSTNYNENFKGKATFTADSSSNTAYMQLSSLTSEDSAVYYCARSGYYGNSGFAYWGQGTLVTVSA VL: DIVMTQSPSSLTVTAGEKVTMSCKSSQSLLSSGNQKNYLTWYQQIPGQPPKLLIYWASTRESGVPDRFTGSGSGTDFTLTINSVQAEDLAVYYCQNDYTYPLTFGAGTKLELK , result: 106

// IL-8 Induction, Ave % inhibition lookup, binder = M9 (antibody, V domains shown, complete MAb; FR4 is its own entry; also called H15/L2) VH: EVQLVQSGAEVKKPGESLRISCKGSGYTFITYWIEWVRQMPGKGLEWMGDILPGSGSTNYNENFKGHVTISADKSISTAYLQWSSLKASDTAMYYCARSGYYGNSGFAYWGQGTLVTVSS VL: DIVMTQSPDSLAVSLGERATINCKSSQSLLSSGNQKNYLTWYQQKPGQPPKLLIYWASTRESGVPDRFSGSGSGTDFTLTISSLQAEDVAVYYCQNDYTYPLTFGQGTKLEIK , result: 106

// IL-8 Induction, Ave % inhibition lookup, binder = M59 (antibody, V domains shown, FR4 is its own entry; also called H22/L3) VH: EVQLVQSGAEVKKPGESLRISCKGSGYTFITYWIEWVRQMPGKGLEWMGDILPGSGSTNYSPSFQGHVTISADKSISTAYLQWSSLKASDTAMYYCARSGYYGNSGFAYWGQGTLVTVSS VL: DIVMTQTPLSLPVTPGEPASISCKSSQSLLSSGNQKNYLTWYLQKPGQSPQLLIYWASTRESGVPDRFSGSGSGTDFTLKISRVEAEDVGVYYCQNDYTYPLTFGQGTKLEIK , result: 103
